# remaining activity at 1 µM listing for each entry below
- measured.target: TBK1 (Homo sapiens (Human), UniProt Q9UHD2)
- Sequence (Q9UHD2 whole entry): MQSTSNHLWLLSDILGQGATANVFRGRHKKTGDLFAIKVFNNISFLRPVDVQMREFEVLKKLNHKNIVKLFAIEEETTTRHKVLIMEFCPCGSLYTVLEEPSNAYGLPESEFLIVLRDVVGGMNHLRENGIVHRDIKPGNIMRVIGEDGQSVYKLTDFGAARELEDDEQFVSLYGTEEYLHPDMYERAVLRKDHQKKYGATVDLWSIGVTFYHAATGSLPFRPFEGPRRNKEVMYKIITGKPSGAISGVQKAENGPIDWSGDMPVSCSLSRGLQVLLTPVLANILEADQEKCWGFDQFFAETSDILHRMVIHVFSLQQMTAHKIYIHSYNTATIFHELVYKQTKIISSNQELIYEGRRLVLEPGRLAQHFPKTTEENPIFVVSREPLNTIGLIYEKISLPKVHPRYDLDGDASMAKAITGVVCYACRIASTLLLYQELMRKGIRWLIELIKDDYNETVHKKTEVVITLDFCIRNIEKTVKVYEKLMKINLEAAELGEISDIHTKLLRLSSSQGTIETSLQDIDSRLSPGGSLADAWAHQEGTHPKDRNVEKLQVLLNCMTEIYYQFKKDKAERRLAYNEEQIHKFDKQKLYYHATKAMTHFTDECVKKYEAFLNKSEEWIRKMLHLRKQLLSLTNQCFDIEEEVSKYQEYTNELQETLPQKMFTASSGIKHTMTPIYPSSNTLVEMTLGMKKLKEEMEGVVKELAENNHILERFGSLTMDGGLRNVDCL
- method: In vitro TBK1 degradation assay, MDA MB 231 cells (compounds 34-57), immunoblot
- Type: cell-based
- reported.conditions: 1 uM compound, 16 h, read-out: % TBK1 remaining at 1 uM Cmpd

- given.smiles: "Cc1ncsc1-c1ccc(CNC(=O)[C@@H]2C[C@@H](O)CN2C(=O)[C@H](C(C)C)N2Cc3ccccc3C2=O)c(OCCCOCCCOCCOc2ccc(Nc3ncc(Br)c(NCCCN(C)C(=O)C4CCC4)n3)cc2)c1"
  remaining activity at 1 µM: "41 to 80%"
- given.smiles: "Cc1ncsc1-c1ccc(CNC(=O)[C@@H]2C[C@@H](O)CN2C(=O)[C@H](C(C)C)N2Cc3ccccc3C2=O)c(OCCCOCCCCOCCCOc2ccc(Nc3ncc(Br)c(NCCCN(C)C(=O)C4CCC4)n3)cc2)c1"
  remaining activity at 1 µM: "41 to 80%"
- given.smiles: "CCc1cnc(Nc2cccc(OCCCOCCCCOCCCOCC(=O)N[C@H](C(=O)N3C[C@H](O)C[C@H]3C(=O)NCc3ccc(-c4scnc4C)cc3)C(C)(C)C)c2)nc1NCCCN(C)C(=O)C1CCC1"
  remaining activity at 1 µM: "≥ 81%"
- given.smiles: "Cc1ncsc1-c1ccc(CNC(=O)[C@@H]2C[C@@H](O)CN2C(=O)[C@H](C(C)C)N2Cc3ccccc3C2=O)c(OCCOCCOCCOCCOc2ccc(Nc3ncc(Br)c(NCCCN(C)C(=O)C4CCC4)n3)cc2)c1"
  remaining activity at 1 µM: "≥ 81%"
- given.smiles: "Cc1cnc(Nc2cccc(OCCCOCCCCOCCCOCC(=O)N[C@H](C(=O)N3C[C@H](O)C[C@H]3C(=O)NCc3ccc(-c4scnc4C)cc3)C(C)(C)C)c2)nc1NCCCN(C)C(=O)C1CCC1"
  remaining activity at 1 µM: "≥ 81%"

====

- measured.target: TBK1 (Homo sapiens (Human), UniProt Q9UHD2)
- method: In vitro TBK1 degradation assay, Panc02.13 cells (compounds 3-33), immunoblot
- Format: cell-based
- reported.conditions: TBK1 degradation, Panc02.13 cells, 16 h; mean of ≥ 2 determinations; read-out: DC50 (concentration at which 50% degradation is observed)
endpoint.label: DC50 (nM)

- given.smiles: "Cc1ncsc1-c1ccc(CNC(=O)[C@@H]2C[C@@H](O)CN2C(=O)[C@@H](NC(=O)COCCOCCOCCCCOc2ccc(Nc3ncc(Br)c(NCCCN(C)C(=O)C4CCC4)n3)cc2)C(C)(C)C)cc1"
  measured.target: "TBK1 (Homo sapiens (Human), UniProt Q9UHD2)"
  operator: "="
  reading: 71
- given.smiles: "Cc1ncsc1-c1ccc(CNC(=O)[C@@H]2C[C@@H](O)CN2C(=O)[C@@H](NC(=O)COCCOCCCCOCCCCOCCOc2ccc(Nc3ncc(Br)c(NCCCN(C)C(=O)C4CCC4)n3)cc2)C(C)(C)C)cc1"
  measured.target: "TBK1 (Homo sapiens (Human), UniProt Q9UHD2)"
  operator: "="
  reading: 6
- given.smiles: "Cc1ncsc1-c1ccc(CNC(=O)[C@@H]2C[C@@H](O)CN2C(=O)[C@@H](NC(=O)COCCOCCOCCOCCOc2ccc(Nc3ncc(Br)c(NCCCN(C)C(=O)C4CCC4)n3)cc2)C(C)(C)C)cc1"
  measured.target: "TBK1 (Homo sapiens (Human), UniProt Q9UHD2)"
  operator: "="
  reading: 103
- given.smiles: "Cc1ncsc1-c1ccc(CNC(=O)[C@@H]2C[C@@H](O)CN2C(=O)[C@@H](NC(=O)COCCCOCCCOc2ccc(Nc3ncc(Br)c(NCCCN(C)C(=O)C4CCC4)n3)cc2)C(C)(C)C)cc1"
  measured.target: "TBK1 (Homo sapiens (Human), UniProt Q9UHD2)"
  operator: ">"
  reading: 1000
- given.smiles: "Cc1ncsc1-c1ccc(CNC(=O)[C@@H]2C[C@@H](O)CN2C(=O)[C@H](C)NC(=O)COCCCOCCCCOCCCOc2ccc(Nc3ncc(Br)c(NCCCN(C)C(=O)C4CCC4)n3)cc2)cc1"
  measured.target: "TBK1 (Homo sapiens (Human), UniProt Q9UHD2)"
  operator: ">"
  reading: 1000

====

- measured.target: TBK1 (Homo sapiens (Human), UniProt Q9UHD2)
- method: In vitro TBK1 degradation assay, Panc02.13 cells (compounds 3-33), immunoblot
- Type: cell-based
- reported.conditions: TBK1 degradation, Panc02.13 cells, 16 h; mean of ≥ 2 determinations; read-out: DC50 (concentration at which 50% degradation is observed)

- compound: "Cc1ncsc1-c1ccc(CNC(=O)[C@@H]2C[C@@H](O)CN2C(=O)[C@@H](NC(=O)CCOCCCOCCCOCCCOCCCOc2ccc(Nc3ncc(Br)c(NCCCN(C)C(=O)C4CCC4)n3)cc2)C(C)(C)C)cc1 [Compound 15]"
  measured.target: "TBK1 (Homo sapiens (Human), UniProt Q9UHD2)"
  DC50: "25 nM"
- compound: "Cc1ncsc1-c1ccc(CNC(=O)[C@@H]2C[C@@H](O)CN2C(=O)[C@@H](NC(=O)COCCOCCOCCOCCOCCOCCOc2ccc(Nc3ncc(Br)c(NCCCN(C)C(=O)C4CCC4)n3)cc2)C(C)(C)C)cc1 [Compound 16]"
  measured.target: "TBK1 (Homo sapiens (Human), UniProt Q9UHD2)"
  DC50: "34 nM"

====

- measured.target: UniProtKB Q9UHD2
- method: In vitro TBK1 degradation assay, Panc02.13 cells (compounds 3-33), immunoblot
- Assay type: cell-based
- reported.conditions: TBK1 degradation, Panc02.13 cells, 16 h; mean of ≥ 2 determinations
Response field label takes met when Dmax (maximal degradation observed) is strictly below 90% and not met in all other cases.

- compound: "Cc1ncsc1-c1ccc(CNC(=O)[C@@H]2C[C@@H](O)CN2C(=O)[C@@H](NC(=O)COCCOCCOCCOCCOCCOCCOc2ccc(Nc3ncc(Br)c(NCCCN(C)C(=O)C4CCC4)n3)cc2)C(C)(C)C)cc1 [Compound 16]"
  cat: "not met"
- compound: "Cc1ncsc1-c1ccc(CNC(=O)[C@@H]2C[C@@H](O)CN2C(=O)[C@H](C)NC(=O)COCCCOCCCCOCCCOc2ccc(Nc3ncc(Br)c(NCCCN(C)C(=O)C4CCC4)n3)cc2)cc1 [Compound 30]"
  cat: "met"
- compound: "Cc1ncsc1-c1ccc(CNC(=O)[C@@H]2C[C@@H](O)CN2C(=O)[C@@H](NC(=O)COCCOCCOCCOCCOCCOc2ccc(Nc3ncc(Br)c(NCCCN(C)C(=O)C4CCC4)n3)cc2)C(C)(C)C)cc1 [Compound 13]"
  cat: "not met"
- compound: "Cc1ncsc1-c1ccc(CNC(=O)[C@@H]2C[C@@H](O)CN2C(=O)[C@@H](NC(=O)COCCCOCCCCCOc2ccc(Nc3ncc(Br)c(NCCCN(C)C(=O)C4CCC4)n3)cc2)C(C)(C)C)cc1 [Compound 8]"
  cat: "met"
- compound: "Cc1ncsc1-c1ccc(CNC(=O)[C@@H]2C[C@@H](O)CN2C(=O)[C@@H](NC(=O)COCCOCCCCOCCCCOCCOCCOc2ccc(Nc3ncc(Br)c(NCCCN(C)C(=O)C4CCC4)n3)cc2)C(C)(C)C)cc1 [Compound 17]"
  cat: "not met"
- compound: "CC[C@H](NC(=O)COCCCOCCCCOCCCOc1ccc(Nc2ncc(Br)c(NCCCN(C)C(=O)C3CCC3)n2)cc1)C(=O)N1C[C@H](O)C[C@H]1C(=O)NCc1ccc(-c2scnc2C)cc1 [Compound 31]"
  cat: "met"

====

- measured.target: TBK1 (Homo sapiens (Human), UniProt Q9UHD2)
- method: In vitro TBK1 degradation assay, Panc02.13 cells (compounds 3-33), immunoblot
- Assay type: cell-based
- reported.conditions: TBK1 degradation, Panc02.13 cells, 16 h; mean of ≥ 2 determinations; read-out: DC50 (concentration at which 50% degradation is observed)
endpoint.label: DC50 (nM)

- given.smiles: "Cc1ncsc1-c1ccc(CNC(=O)[C@@H]2C[C@@H](O)CN2C(=O)[C@@H](NC(=O)COCCCOCCCCOCCCOc2ccc(Nc3ncc(Br)c(NCCCN(C)C(=O)C4CCC4)n3)cc2)C(C)(C)C)cc1"
  endpoint.label: "DC50"
  operator: "="
  reading: 12
- given.smiles: "Cc1ncsc1-c1ccc(CNC(=O)[C@@H]2C[C@@H](O)CN2C(=O)[C@@H](NC(=O)COCCOCCOCCOc2ccc(Nc3ncc(Br)c(NCCCN(C)C(=O)C4CCC4)n3)cc2)C(C)(C)C)cc1"
  endpoint.label: "DC50"
  operator: ">"
  reading: 1000
- given.smiles: "Cc1ncsc1-c1ccc(CNC(=O)[C@@H]2C[C@@H](O)CN2C(=O)[C@@H](NC(=O)COCCOCCCCOCCCCOCCOCCOc2ccc(Nc3ncc(Br)c(NCCCN(C)C(=O)C4CCC4)n3)cc2)C(C)(C)C)cc1"
  endpoint.label: "DC50"
  operator: "="
  reading: 3
- given.smiles: "CC[C@H](NC(=O)COCCCOCCCCOCCCOc1ccc(Nc2ncc(Br)c(NCCCN(C)C(=O)C3CCC3)n2)cc1)C(=O)N1C[C@H](O)C[C@H]1C(=O)NCc1ccc(-c2scnc2C)cc1"
  endpoint.label: "DC50"
  operator: "="
  reading: 864
- given.smiles: "Cc1ncsc1-c1ccc(CNC(=O)[C@@H]2C[C@@H](O)CN2C(=O)[C@@H](NC(=O)COCCCOCCCCOCCCOc2ccc(Nc3ncc(Br)c(NCCCN(C)C(=O)C4CCC4)n3)cc2)C(C)C)cc1"
  endpoint.label: "DC50"
  operator: "="
  reading: 44

Values were extracted from patent US10946017B2.
